molecular target: recombinant hIRE-1 (Homo sapiens (Human), UniProt O75460); assay: In vitro IRE-1 RNase FRET-suppression assay; assay type: biochemical; details: In vitro IRE-1 RNase inhibition by analogs of 21b; FRET-suppression assay; read-out: IC50
Sequence (O75460 547-977): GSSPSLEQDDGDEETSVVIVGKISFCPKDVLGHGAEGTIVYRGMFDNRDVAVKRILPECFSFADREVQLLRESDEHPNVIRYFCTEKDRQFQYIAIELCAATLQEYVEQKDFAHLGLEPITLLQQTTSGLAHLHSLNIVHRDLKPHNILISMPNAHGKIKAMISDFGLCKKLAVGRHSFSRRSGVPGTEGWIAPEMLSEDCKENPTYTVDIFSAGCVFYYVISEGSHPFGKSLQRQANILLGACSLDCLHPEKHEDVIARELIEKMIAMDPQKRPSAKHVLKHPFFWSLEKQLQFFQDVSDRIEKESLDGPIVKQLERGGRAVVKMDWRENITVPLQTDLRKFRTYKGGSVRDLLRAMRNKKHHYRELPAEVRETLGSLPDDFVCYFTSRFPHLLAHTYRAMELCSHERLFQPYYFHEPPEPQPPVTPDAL
result type: IC50

## Task Please give measured IC50 of the following entry: C=CCOC(=O)N1CCc2c(c(=O)oc3c(C=O)c(OCc4ccccc4)ccc23)C1
## Result > 20 µM

====

assay: Pharmacokinetics of B-I09 in mouse plasma; type: in vivo; details: male, CD-1, ip, 50 mg/kg intraperitoneally
result type: half-life

## Task Provide half-life value for the following compound: O=c1oc2c(C3OCCCO3)c(O)ccc2c2c1CNCC2
## Result ~1.5 h
